Measurement Notes: Drug repurposing screens with cells derived from glioblastoma tumor samples (AID 1345199); also: % is scaled to controls: 0 for no effect and ±100 for the full control effect
Assay Context: GBM patient neurospheres viability, ATP luminescence, 48 h; at 45.9 µM (top of the series); tumour line D
Results filed as inconclusive are left out.
Task for the reader: assign each of the following compounds its reported activity, negative = cell killing.
Express it in %; write the number only.

Any idea what activity, negative = cell killing was measured for CS(=O)(=O)CCNCc1ccc(-c2ccc3ncnc(Nc4ccc(OCc5cccc(F)c5)c(Cl)c4)c3c2)o1 ? -7.21

Now this one: OCCN(CCO)c1nc(N2CCCCC2)c2nc(N(CCO)CCO)nc(N3CCCCC3)c2n1 -18.5

Consider next the compound O=C(c1ccc(F)cc1)C1CCN(CCn2c(=O)[nH]c3ccccc3c2=O)CC1 in the same way. -39.8

Also CC(C)NCC(O)c1ccc(O)c(O)c1 (stereo not drawn) , if possible. 4.85

Entry CCOC(=O)c1ncn2c1CN(C)C(=O)c1cc(F)ccc1-2 please 3.15

Another compound to check: NCCS(=O)(=O)O -0.425

Same question for C[C@](N)(Cc1ccc(O)c(O)c1)C(=O)O please. -4.46

Cool, now CCN1CCCC1CNC(=O)c1cc(S(=O)(=O)CC)c(N)cc1OC (stereo not drawn) -2.77

Again, but for Cn1c(=O)c2[nH]cnc2n(C)c1=O -12.3

Try the compound Cn1cnc2c1c(=O)[nH]c(=O)n2C -15.5

Then this compound: CC1COc2c(N3CCN(C)CC3)c(F)cc3c(=O)c(C(=O)O)cn1c23 (stereo not drawn) -0.592

Try this compound next: NC(CO)C(=O)NNCc1ccc(O)c(O)c1O (stereo not drawn) -22

Input Clc1ccc2c(c1)C(N1CCNCC1)=Nc1ccccc1O2 -2.29

Check NCCc1cnc[nH]1 too. 2.11

Query CN(CCOc1ccc(NS(C)(=O)=O)cc1)CCc1ccc(NS(C)(=O)=O)cc1 next -4.11

Try COc1ccc2c(c1)c(CC(=O)O)c(C)n2C(=O)c1ccc(Cl)cc1 next. -6.82

Okay, and COc1ccc2[nH]cc(CCNC(C)=O)c2c1 ? 3.96

Try this compound too: CN(Cc1cnc2nc(N)nc(N)c2n1)c1ccc(C(=O)N[C@@H](CCC(=O)O)C(=O)O)cc1 3.85

Next compound up: NC(=O)NO -5.79

Can you check COc1cc2nc(N3CCN(C(=O)C4COc5ccccc5O4)CC3)nc(N)c2cc1OC (stereo not drawn) next? -29.3

Input CC(C)(C)C(=O)Oc1ccc(S(=O)(=O)Nc2ccccc2C(=O)NCC(=O)O)cc1 -10.4

Another compound to look at: C[C@H]1c2cccc(O)c2C(O)=C2C(=O)[C@]3(O)C(O)=C(C(N)=O)C(=O)[C@@H](N(C)C)[C@@H]3[C@@H](O)[C@@H]21 -13

// next record NS(=O)(=O)c1cc2c(cc1Cl)NCNS2(=O)=O -0.301
